Tested on: M. tuberculosis H37Rv growth inhibition, 7H9 media
Assay: M. tuberculosis growth inhibition, HTS (AID 449762);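 further: bacterial growth assessed after seven days of incubation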
Conditions: measured here: IC90 growth inhibition
Records with an inconclusive call do not appear.
endpoint-name: IC90 (µM)

[
  {
    "compound": "CCOC(=O)/C(=N/Nc1ccccc1)c1csc(Nc2ccccc2)n1",
    "unit-descriptor": "µM",
    "relation": ">",
    "meas-value": 100
  },
  {
    "compound": "CCOC(=O)N1CCN(Cc2cc(Cl)c3cccnc3c2O)CC1",
    "unit-descriptor": "µM",
    "relation": "=",
    "meas-value": 21
  },
  {
    "compound": "CCOC(=O)C(C)Oc1ccc(NC(=O)C(Cl)(Cl)Cl)cc1 (configuration not stated)",
    "unit-descriptor": "µM",
    "relation": "=",
    "meas-value": 5.08
  },
  {
    "compound": "CCOC(=O)c1nc2sc3c(c2c(=O)[nH]1)CCC(C)C3 (configuration not stated)",
    "unit-descriptor": "µM",
    "relation": ">",
    "meas-value": 100
  },
  {
    "compound": "O=C(/C(=C/c1ccc(Cl)cc1)c1nc2ccccc2[nH]1)c1cccs1",
    "unit-descriptor": "µM",
    "relation": "=",
    "meas-value": 42.7
  },
  {
    "compound": "CCN(C[C@H]1N[C@@](Cc2ccccc2)(C(=O)OC)[C@H]2C(=O)N(Cc3ccccc3)C(=O)[C@@H]12)C(=O)Nc1ccc(C(F)(F)F)cc1",
    "unit-descriptor": "µM",
    "relation": "=",
    "meas-value": 11.4
  },
  {
    "compound": "CC(Oc1ccc2ccccc2c1)C(=O)NNC(=S)NC(=O)c1ccco1 (configuration not stated)",
    "unit-descriptor": "µM",
    "relation": "=",
    "meas-value": 45
  }
]
